Test system: TNF release
Test: TNF assay: TNF release from LPS-stimulated human PBMCs (TNF ELISA)
Assay type: cell-based
Settings: PBMC; human PBMCs; compounds 2 hours before LPS (10 ng/ml) for 18 hours; supernatant TNF ELISA; read-out: IC50 (TNF assay)
measurement-name: IC50

A selection of reference data follows.
INSERT INTO measurements (compound, measurement_name, reported_result) VALUES
  ('CCc1cccc(NS(=O)(=O)c2cc(Br)cc3c2OC(CC)C(=O)N3C)c1 (stereo not drawn) [BC19915]', 'IC50', '> 10 µM'),
  ('CC1Oc2c(cc(Cl)cc2S(=O)(=O)Nc2cccc(F)c2)NC1=O (stereo not drawn) [BC19714]', 'IC50', '1 to 10 µM'),
  ('CCC1Oc2c(cc(Br)cc2S(=O)(=O)Nc2ccc(C)c(F)c2)N(C)C1=O (stereo not drawn) [BC19923]', 'IC50', '1 to 10 µM'),
  ('CC1Oc2c(cc(Br)cc2S(=O)(=O)NCc2ccc(F)cc2F)NC1=O (stereo not drawn) [BC19362]', 'IC50', '> 10 µM');

Please state, for each entry, its recorded IC50.
1. CC1Oc2cc(S(=O)(=O)N3CCN(C)CC3)c(Br)cc2NC1=O (stereo not drawn) [BC19219]
2. CC1Oc2c(cc(Br)cc2S(=O)(=O)NC2CCC(O)CC2)NC1=O (stereo not drawn) [BC19366]
3. Cc1ccc(NS(=O)(=O)c2cc(S(C)(=O)=O)cc3c2OCC(=O)N3)cc1 [BC19488]

["> 10 µM", "> 10 µM", "> 10 µM"]

Please state, for each entry, its recorded IC50.
1. CCS(=O)(=O)c1cc2c(c(S(=O)(=O)Nc3ccc(Cl)cc3)c1)OCC(=O)N2 [BC19491]
2. CCc1cccc(NS(=O)(=O)c2cc3c(cc2Br)NC(=O)CO3)c1 [BC19167]

> 10 µM
> 10 µM

Origin of values: patent US12606528B2
